- EXPERIMENT_DESCRIPTION: Ten-hour half-life temperature (0.1 M in benzene)
- Type: physicochemical
Measured Ten-Hour Half-Life Temperature, listed per entry.
Note: unit °C is implicit; provide only the numeric part.

Consider the worked cases shown below.
O=C(OCCOc1ccccc1)OOC(=O)OCCOc1ccccc1 [di(phenoxyethyl) peroxydicarbonate] ... 42.2
CCCCCCCCCCCC(=O)OOC(=O)OCC1CCC(COC(=O)OOC(=O)CCCCCCCCCCC)CC1 (stereo not shown) [LPCD] ... 51.4
CC(C)(C)C1CCC(OC(=O)OOC(=O)OC2CCC(C(C)(C)C)CC2)CC1 (stereo not shown) ... 43.0

With those in mind, consider the next compound.
So, CC(=O)OOC(=O)OCC1CCC(COC(=O)OOC(C)=O)CC1 (stereo not shown) [APCD] ? Its Ten-Hour Half-Life Temperature was 55.2

* * *

Measured A.O., listed per entry.
- EXPERIMENT_DESCRIPTION: Storage stability at 40 °C
- Assay type: physicochemical
- Design: unit not given here
- CONDITION_LABEL: 59 days elapsed
- Experimental: APCD from Example 1 is selected as representative and was tested over a period of 89 days at 40° C. Representative peroxy carbonate and dicarbonates of the prior art are also included for comparison. Storage Stability at 40° C.
Just the number, please.

Consider the worked cases shown below.
CC(=O)OOC(=O)OCC1CCC(COC(=O)OOC(C)=O)CC1 (stereo not shown) ... 8.77
O=C(OCCOc1ccccc1)OOC(=O)OCCOc1ccccc1 [di(phenoxyethyl) peroxydicarbonate] ... 3.74
CC(C)(C)C1CCC(OC(=O)OOC(=O)OC2CCC(C(C)(C)C)CC2)CC1 (stereo not shown) ... 3.73

So, CCCCCCCCCCCCCCCCCCOC(=O)OOC(C)=O [acetyl peroxystearyl carbonate] ? Its A.O. was 3.77

* * *

Measured % Purity, listed per entry.
- EXPERIMENT_DESCRIPTION: Storage stability at 40 °C
- Type: physicochemical
- CONDITION_LABEL: 14 days elapsed
Note: unit % is implicit; provide only the numeric part.

CC(=O)OOC(=O)OCC1CCC(COC(=O)OOC(C)=O)CC1 (stereo not shown) ... 98.3
O=C(OCCOc1ccccc1)OOC(=O)OCCOc1ccccc1 [di(phenoxyethyl) peroxydicarbonate] ... 93.3
CC(C)(C)C1CCC(OC(=O)OOC(=O)OC2CCC(C(C)(C)C)CC2)CC1 (stereo not shown) ... 96.4

With those in mind, consider the next compound.
So, CCCCCCCCCCCCCCCCCCOC(=O)OOC(C)=O [acetyl peroxystearyl carbonate] ? Its % Purity was 93.1

* * *

Measured % Purity, listed per entry.
- EXPERIMENT_DESCRIPTION: Storage stability at 40 °C
- Type: physicochemical
- CONDITION_LABEL: 7 days elapsed
- Protocol: APCD from Example 1 is selected as representative and was tested over a period of 89 days at 40° C. Representative peroxy carbonate and dicarbonates of the prior art are also included for comparison. Storage Stability at 40° C.
Note: unit % is implicit; provide only the numeric part.

So, CCCCCCCCCCCCCCCCCCOC(=O)OOC(C)=O [acetyl peroxystearyl carbonate] ? Its % Purity was 93.5

So, CC(=O)OOC(=O)OCC1CCC(COC(=O)OOC(C)=O)CC1 (stereo not shown) [APCD] ? Its % Purity was 99.5

So, CC(C)(C)C1CCC(OC(=O)OOC(=O)OC2CCC(C(C)(C)C)CC2)CC1 (stereo not shown) ? Its % Purity was 96.4

So, O=C(OCCOc1ccccc1)OOC(=O)OCCOc1ccccc1 [di(phenoxyethyl) peroxydicarbonate] ? Its % Purity was 94.4

// provenance: patent US4372877A
